# Assay system: FoccCSP-Tyr31Ala (Frankliniella occidentalis, UniProt G4Y3X1, Y31A)
# Sequence (G4Y3X1 entry or part of it Y31A): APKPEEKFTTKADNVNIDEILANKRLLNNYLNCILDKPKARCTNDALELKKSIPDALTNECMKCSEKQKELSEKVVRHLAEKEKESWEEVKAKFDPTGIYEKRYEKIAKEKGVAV
# Test details: Fluorescence (1-NPN) binding and competitive binding assay, FoccCSP mutant
# Description: The binding affinity of FintCSP1 and FoccCSP to the fluorescent probe N-phenyl-1-naphthylamine (1-NPN) was tested using a Spectramax M2 fluorescence spectrometer (Molecular Devices, USA) as reported previously. […] The 1-NPN/FintCSP1 or 1-NPN/FoccCSP mixture was excited at 280 nm, and the emission spectra were recorded at 415 nm. The binding constants (Kd) of FintCSP1 or FoccCSP to 1-NPN were calculated by Scatchard analysis using Prism 5 software (GraphPad, La Jolla, CA, USA). […]
pKi: −log10 of the molar value.

Molecule: CC/C=C\CC=O [cis-3-hexenal]
pKi: 4.43
